# Experimental system: Pgp (LCC6MDR cells) (Homo sapiens, UniProt P08183)
# Sequence (P08183 whole entry): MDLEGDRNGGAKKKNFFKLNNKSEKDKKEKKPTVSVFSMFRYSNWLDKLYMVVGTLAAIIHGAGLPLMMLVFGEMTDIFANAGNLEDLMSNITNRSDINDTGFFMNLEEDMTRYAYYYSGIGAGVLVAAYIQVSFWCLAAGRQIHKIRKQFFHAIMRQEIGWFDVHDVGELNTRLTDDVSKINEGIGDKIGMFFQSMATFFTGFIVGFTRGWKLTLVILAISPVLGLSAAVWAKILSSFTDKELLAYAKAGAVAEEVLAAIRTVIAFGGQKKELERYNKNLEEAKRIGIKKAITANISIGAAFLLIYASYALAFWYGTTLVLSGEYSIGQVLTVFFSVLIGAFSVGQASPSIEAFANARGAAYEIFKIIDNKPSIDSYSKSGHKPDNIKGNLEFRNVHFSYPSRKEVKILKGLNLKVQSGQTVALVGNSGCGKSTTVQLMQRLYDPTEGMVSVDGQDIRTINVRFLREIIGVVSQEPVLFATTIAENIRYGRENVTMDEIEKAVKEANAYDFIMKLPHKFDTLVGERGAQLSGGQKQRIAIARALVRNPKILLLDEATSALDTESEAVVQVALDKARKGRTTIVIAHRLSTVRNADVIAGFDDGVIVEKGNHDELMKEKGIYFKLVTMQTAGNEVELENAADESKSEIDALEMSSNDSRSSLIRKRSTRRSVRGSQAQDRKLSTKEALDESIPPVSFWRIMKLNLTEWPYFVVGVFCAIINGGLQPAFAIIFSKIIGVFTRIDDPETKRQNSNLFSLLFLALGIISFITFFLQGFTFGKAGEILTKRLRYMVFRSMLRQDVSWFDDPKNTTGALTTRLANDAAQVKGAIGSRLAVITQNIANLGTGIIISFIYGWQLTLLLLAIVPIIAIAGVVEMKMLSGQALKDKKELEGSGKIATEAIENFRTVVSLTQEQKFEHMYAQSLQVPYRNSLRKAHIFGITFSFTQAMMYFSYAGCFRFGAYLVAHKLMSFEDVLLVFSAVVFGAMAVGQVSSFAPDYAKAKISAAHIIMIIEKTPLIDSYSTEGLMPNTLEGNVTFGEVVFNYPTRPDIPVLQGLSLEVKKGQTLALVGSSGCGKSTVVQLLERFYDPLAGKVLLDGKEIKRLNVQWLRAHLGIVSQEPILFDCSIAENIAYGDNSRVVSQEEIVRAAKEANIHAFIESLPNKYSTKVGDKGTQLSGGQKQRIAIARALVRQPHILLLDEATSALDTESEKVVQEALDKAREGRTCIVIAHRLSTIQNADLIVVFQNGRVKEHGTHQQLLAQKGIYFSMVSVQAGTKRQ
# Experimental details: Cell proliferation assay: Pgp-modulating activity, reversal of anticancer drug resistance in LCC6MDR cells
# Condition info: RF = (IC50 without modulator)/(IC50 with 0.5 μM modulator), paclitaxel, LCC6MDR

[
  {
    "Compound": "O=c1cc(-c2ccc(OCCOCCN(CCOCCOc3ccc(-c4cc(=O)c5ccccc5o4)cc3)Cc3cccc(-c4ccccc4)c3)cc2)oc2ccccc12",
    "RF (Relative Fold), cpd at 0.5 μM": "(2.7)"
  },
  {
    "Compound": "O=C(c1ccccc1)N(CCOCCOc1ccc(-c2cc(=O)c3ccccc3o2)cc1)CCOCCOc1ccc(-c2cc(=O)c3ccccc3o2)cc1 [Compound 23d]",
    "RF (Relative Fold), cpd at 0.5 μM": "(7.5)"
  },
  {
    "Compound": "C[C@H](N)C(=O)N(CCOCCOc1ccc(-c2cc(=O)c3ccccc3o2)cc1)CCOCCOc1ccc(-c2cc(=O)c3ccccc3o2)cc1 [Compound 23b]",
    "RF (Relative Fold), cpd at 0.5 μM": "(1.0)"
  },
  {
    "Compound": "N#Cc1ccc(CN(CCOCCOc2ccc(-c3cc(=O)c4ccccc4o3)cc2)CCOCCOc2ccc(-c3cc(=O)c4ccccc4o3)cc2)cc1",
    "RF (Relative Fold), cpd at 0.5 μM": "(2.6)"
  },
  {
    "Compound": "O=c1cc(-c2ccc(OCCOCCN(CCOCCOc3ccc(-c4cc(=O)c5ccccc5o4)cc3)Cc3cccc4ccccc34)cc2)oc2ccccc12",
    "RF (Relative Fold), cpd at 0.5 μM": "(2.2)"
  }
]
